// provenance: ChEMBL document CHEMBL1131090

Listed next: entries and their corresponding concentration at 1 h.
# test description: plasma concentration was measured against the Nonhuman primates (cynomolgus monkey) using HPLC after 1 hr; uM
assay metric: concentration at 1 h

- compound: "CN1CCN=C1c1cccc(Oc2nc(Oc3cc(C(=N)N)ccc3O)c(F)c(N(C)CC(=O)O)c2F)c1 [FIDEXABAN]"
  assay metric: "concentration at 1 h"
  result: "200 nM"
- compound: "CN1CCN=C1c1cccc(Oc2nc(Oc3cc(C(=N)N)ccc3O)c(F)c(OC3CCN(CC(=O)O)CC3)c2F)c1"
  assay metric: "concentration at 1 h"
  result: "100 nM"

----------
# test description: plasma concentration was measured against the Nonhuman primates (baboon) using FXa inhibition assay after 4 hr; uM
# Type: ADME, organism-based, Papio
Listed next: entries and their corresponding concentration at 4 h.

- cpd smiles: "CN1CCN=C1c1cccc(Oc2nc(Oc3cc(C(=N)N)ccc3O)c(F)c(OC3CCN(CC(=O)O)CC3)c2F)c1"
  units label: "nM"
  concentration at 4 h: 200
- cpd smiles: "CN1CCN=C1c1cccc(Oc2nc(Oc3cc(C(=N)N)ccc3O)c(F)c(N(C)CC(=O)O)c2F)c1"
  units label: "nM"
  concentration at 4 h: 1100
- cpd smiles: "CCOC(=O)[C@@H]1C[C@@H](Oc2c(F)c(Oc3cccc(C4=NCCN4C)c3)nc(Oc3cc(C(=N)N)ccc3O)c2F)CN1"
  units label: "nM"
  concentration at 4 h: 500

----------
# test description: plasma concentration was measured against the Nonhuman primates (baboon) using FXa inhibition assay after 2 hr; uM
# Format: ADME, organism-based, Papio
assay metric: concentration at 2 h (nM)

- compound: "CCOC(=O)[C@@H]1C[C@@H](Oc2c(F)c(Oc3cccc(C4=NCCN4C)c3)nc(Oc3cc(C(=N)N)ccc3O)c2F)CN1"
  assay metric: "concentration at 2 h"
  units label: "nM"
  quantitative result: 300
- compound: "CN1CCN=C1c1cccc(Oc2nc(Oc3cc(C(=N)N)ccc3O)c(F)c(N(C)CC(=O)O)c2F)c1 [FIDEXABAN]"
  assay metric: "concentration at 2 h"
  units label: "nM"
  quantitative result: 600

----------
# system tested: Prothrombin (Homo sapiens)
# strict inequality: Ki < 600 nM yields 1.0, everything else yields 0.0

- cpd smiles: "N=C(N)c1ccc(Oc2cccc(Oc3ccc(C(=N)N)cc3)n2)cc1"
  class: 1.0
- cpd smiles: "CCOC(=O)[C@@H]1C[C@@H](Oc2c(F)c(Oc3cccc(C4=NCCN4C)c3)nc(Oc3cc(C(=N)N)ccc3O)c2F)CN1"
  class: 1.0
- cpd smiles: "Cc1c(F)c(Oc2cccc(C(=O)N(C)C)c2)nc(Oc2cc(C(=N)N)ccc2O)c1F"
  class: 0.0
- cpd smiles: "Cc1c(F)c(Oc2cccc(C(=N)N)c2)nc(Oc2cccc(C(=O)N(C)C)c2)c1F"
  class: 0.0
- cpd smiles: "CN(C)C(=O)c1cccc(Oc2cc(C(=O)O)cc(Oc3cc(C(=N)N)ccc3O)n2)c1"
  class: 0.0
- cpd smiles: "CCOC(=O)CN1CCC(Oc2c(F)c(Oc3cccc(C4=NCCN4C)c3)nc(Oc3cc(C(=N)N)ccc3O)c2F)CC1"
  class: 1.0
- cpd smiles: "N=C(N)c1ccc(O)c(Oc2cc(C(=O)O)cc(Oc3cccc(-n4ccnc4)c3)n2)c1"
  class: 0.0
